List of GI50 tested on SK-MEL-2 melanoma.
attributeMeasured: GI50

{"molecularString": "Cc1cc2nc3c4cc(C=O)ccc4n(CCN(C)C)c3nc2cc1C", "measurementTarget": "SK-MEL-2 melanoma", "reportedMeasurement": "1760 nM"}
{"molecularString": "Clc1ccc(-c2ccc(CNCC3CCNCC3)o2)c(-c2ccccc2)c1", "measurementTarget": "SK-MEL-2 melanoma", "reportedMeasurement": "1760 nM"}
{"molecularString": "CCOC(=O)Nc1nc2cc(OC)c(OC)c(OC)c2s1", "measurementTarget": "SK-MEL-2 melanoma", "reportedMeasurement": "62600 nM"}
